- target-of-assay: LILRA5 (human (not printed on the sheet), UniProt A6NI73)
- Sequence (A6NI73 42-268 limits assumed): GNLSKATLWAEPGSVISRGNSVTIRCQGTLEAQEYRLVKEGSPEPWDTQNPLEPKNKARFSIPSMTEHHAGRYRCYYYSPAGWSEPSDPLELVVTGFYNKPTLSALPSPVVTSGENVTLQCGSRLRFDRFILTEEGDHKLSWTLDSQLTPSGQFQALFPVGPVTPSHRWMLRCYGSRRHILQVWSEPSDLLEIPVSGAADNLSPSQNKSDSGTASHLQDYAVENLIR
- assay-remarks: LILR reporter cells on coated antibody, GFP positive (%)
measure-name: binding result

[
  {
    "binder": "h193 antibody No. 28 (h193-H5 / h193-K2) (antibody, V domains shown) VH: EVQLVESGGGLVQPGGSLRLSCAASGFSLSSSYWISWVRQAPGKGLEWIGVIDSGSVGITYYATWAKGRFTISRDNSKNTLYLQMNSLRAEDTAVYYCARHGDNWALDLWGQGTLVTVSS VL: DLVMTQSPSTLSASVGDRVTITCQASQSINSWLAWYQQKPGKPPKLLIYKASTLASGVSSRFSGSGSGTEFTLTISSLQPDDVATYYCQHGYIRGDLDNVFGGGTKVEIK",
    "measure-name": "binding result",
    "test-value": "no binding"
  },
  {
    "binder": "h193 antibody No. 20 (h193-H3 / h193-K2) (antibody, V domains shown) VH: EVQLVESGGGLVQPGGSLRLSCAASGFSLSSSYWISWVRQAPGKGLEWIGSIDSGSVGITYYATWAKGRFTISRDNSKNTLYLQMNSLRAEDTAVYYCARHGDNWALDLWGQGTLVTVSS VL: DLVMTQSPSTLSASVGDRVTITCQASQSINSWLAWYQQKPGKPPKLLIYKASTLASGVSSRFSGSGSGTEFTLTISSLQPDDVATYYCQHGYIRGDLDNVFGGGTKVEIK",
    "measure-name": "binding result",
    "test-value": "no binding"
  },
  {
    "binder": "h193 antibody No. 31 (h193-H6 / h193-K1) (antibody, V domains shown) VH: EVQLVESGGGLVQPGGSLRLSCAASGFSLSSSYWISWVRQAPGKGLEWIGSIDSGSVGITYYATSAKGRFTISRDNSKNTLYLQMNSLRAEDTAVYYCARHGDNWALDLWGQGTLVTVSS VL: DIQMTQSPSTLSASVGDRVTITCQASQSINSWLAWYQQKPGKAPKLLIYKASTLASGVPSRFSGSGSGTEFTLTISSLQPDDFATYYCQHGYIRGDLDNVFGGGTKVEIK",
    "measure-name": "binding result",
    "test-value": "no binding"
  }
]
